Assay: xn = mol fraction of the nth substance listed
Details: 303.15 K; 101.33 kPa; x2 = 0.3
Recorded viscosity values for a group of compounds are listed next.
All answers are understood in mPa·s, so give the number only.

C[N+](=O)[O-] + CC(C)(C)O :: 0.638
C[N+](=O)[O-] + CO :: 0.479
C[N+](=O)[O-] + CCC(C)O :: 0.633

Now let's try a different one.
Recorded viscosity (compound C[N+](=O)[O-] + CC(C)O ): 0.579

====

Recorded log10 viscosity values for a group of compounds are listed next.
Conditions: 313.15 K; 101 kPa
In our notation, the value equals log10 of viscosity in mPa·s.

CCCCCCn1cc[n+](C)c1.F[P-](F)(F)(F)(F)F :: 2.44
CC1CCC(=O)O1 (configuration not stated) :: 0.16
CCCCCCCCCCCC[N+](C)(C)Cc1ccccc1.O=S(=O)([N-]S(=O)(=O)C(F)(F)F)C(F)(F)F :: 2.69
CCC1(C)OC1C#N (configuration not stated) :: -0.01
CCCCC(CC)COP(=O)(O)OCC(CC)CCCC (configuration not stated) :: 1.13

Recorded log10 viscosity (compound `CCCCOCCOCCOCCO` ): 0.70

Recorded log10 viscosity (compound `OCC1CC1` ): 0.36

====

Assay: xn = mol fraction of the nth substance listed
Details: 313.15 K; 101.33 kPa; x2 = 0.9
Recorded viscosity values for a group of compounds are listed next.
All answers are understood in mPa·s, so give the number only.

C[N+](=O)[O-] + CCCO :: 1.094
C[N+](=O)[O-] + CC(C)O :: 1.023
C[N+](=O)[O-] + CCO :: 0.705

Recorded viscosity (compound C[N+](=O)[O-] + CO ): 0.423

====

Assay: xn = mol fraction of the nth substance listed
Details: 313.15 K; 101.33 kPa; x2 = 0.85
± gives the uncertainty stated by the source.
Parameter Measured: viscosity

Solved cases (4 shown):
C[N+](=O)[O-] + CCO :: 0.662 ± 0.006 mPa·s
C[N+](=O)[O-] + CC(C)(C)O :: 1.244 ± 0.05 mPa·s
C[N+](=O)[O-] + CCCO :: 0.993 ± 0.009 mPa·s
C[N+](=O)[O-] + CC(C)O :: 0.917 ± 0.008 mPa·s

Recorded viscosity (compound C[N+](=O)[O-] + CCC(C)O ): 1.14 ± 0.01 mPa·s

====

Test: xn = mol fraction of the nth substance listed
Details: 293.15 K; 101.33 kPa; x2 = 0.7
Kindly apply the following: satisfied if viscosity is less than 1 mPa·s, not satisfied in every other case.

C[N+](=O)[O-] + CO :: satisfied

Hello, is viscosity of the following compound strictly smaller than 1 mPa·s? C[N+](=O)[O-] + CCCO
not satisfied

Hello, is viscosity of the following compound strictly smaller than 1 mPa·s? C[N+](=O)[O-] + CCC(C)O
not satisfied

Hello, is viscosity of the following compound strictly smaller than 1 mPa·s? C[N+](=O)[O-] + CCO
satisfied

Hello, is viscosity of the following compound strictly smaller than 1 mPa·s? C[N+](=O)[O-] + CC(C)O
not satisfied

====

Assay: xn = mol fraction of the nth substance listed
Conditions: 303.15 K; 101.33 kPa; x2 = 0.5
Parameter Measured: viscosity (mPa·s)
All answers are understood in mPa·s, so give the number only.

Solved cases (3 shown):
C[N+](=O)[O-] + CCCO :: 0.74
C[N+](=O)[O-] + CC(C)O :: 0.679
C[N+](=O)[O-] + CO :: 0.461

Now let's try a different one.
Recorded viscosity (molecule C[N+](=O)[O-] + CCC(C)O ): 0.798

====

Recorded viscosity values for a group of molecules are listed next.
Settings: 323.15 K; 101 kPa
All answers are understood in mPa·s, so give the number only.

Solved cases (4 shown):
CCCCCCCCCCCC[N+](C)(C)Cc1ccccc1.O=S(=O)([N-]S(=O)(=O)C(F)(F)F)C(F)(F)F :: 260.6
CCCCOCCOCCOCCO :: 3.769
OCC1CC1 :: 1.819
CCC1(C)OC1C#N (stereo not given) :: 0.84

Now let's try a different one.
Recorded viscosity (molecule `C[N+](=O)[O-]` ): 0.486

====

Experiment: xn = mol fraction of the nth substance listed
Details: 293.15 K; 101.33 kPa; x2 = 0.95
± gives the uncertainty stated by the source.
Recorded viscosity values for a group of molecules are listed next.
Answer format: number, then unit.

C[N+](=O)[O-] + CO :: 0.566 ± 0.005 mPa·s

Recorded viscosity (molecule C[N+](=O)[O-] + CCC(C)O ): 2.845 ± 0.025 mPa·s

Recorded viscosity (molecule C[N+](=O)[O-] + CC(C)O ): 1.988 ± 0.018 mPa·s

Recorded viscosity (molecule C[N+](=O)[O-] + CCCO ): 1.911 ± 0.017 mPa·s

Recorded viscosity (molecule C[N+](=O)[O-] + CCO ): 1.086 ± 0.01 mPa·s

====

Experiment: xn = mol fraction of the nth substance listed
Settings: 293.15 K; 101.33 kPa; x2 = 0.75
± gives the uncertainty stated by the source.
Parameter Measured: viscosity
Answer format: number, then unit.

C[N+](=O)[O-] + CCC(C)O :: 1.547 ± 0.014 mPa·s
C[N+](=O)[O-] + CCO :: 0.825 ± 0.008 mPa·s
C[N+](=O)[O-] + CC(C)O :: 1.182 ± 0.011 mPa·s

Now let's try a different one.
Recorded viscosity (molecule C[N+](=O)[O-] + CCCO ): 1.26 ± 0.011 mPa·s

====

Test: xn = mol fraction of the nth substance listed
Conditions: 313.15 K; 101.33 kPa; x2 = 0.65
± gives the uncertainty stated by the source.
Parameter Measured: viscosity

Solved cases (3 shown):
C[N+](=O)[O-] + CC(C)O :: 0.673 ± 0.006 mPa·s
C[N+](=O)[O-] + CO :: 0.405 ± 0.004 mPa·s
C[N+](=O)[O-] + CCCO :: 0.739 ± 0.007 mPa·s

Now let's try a different one.
Recorded viscosity (compound C[N+](=O)[O-] + CCO ): 0.547 ± 0.005 mPa·s

====

Assay: xn = mol fraction of the nth substance listed
Conditions: 313.15 K; 101.33 kPa; x2 = 0.55
Parameter Measured: viscosity (mPa·s)
All answers are understood in mPa·s, so give the number only.

Solved cases (3 shown):
C[N+](=O)[O-] + CC(C)(C)O :: 0.717
C[N+](=O)[O-] + CC(C)O :: 0.601
C[N+](=O)[O-] + CO :: 0.406

Now let's try a different one.
Recorded viscosity (compound C[N+](=O)[O-] + CCO ): 0.516

====

Settings: 303.15 K; 101 kPa
± gives the uncertainty stated by the source.
Recorded viscosity values for a group of molecules are listed next.

CC1CCC(=O)O1 (centres undefined) :: 1.72 ± 0.015 mPa·s
CCCCCCCCCCCC[N+](C)(C)Cc1ccccc1.O=S(=O)([N-]S(=O)(=O)C(F)(F)F)C(F)(F)F :: 974.3 ± 130 mPa·s
CCCCCCn1cc[n+](C)c1.F[P-](F)(F)(F)(F)F :: 497.1 ± 150 mPa·s
CCCCC(CC)COP(=O)(O)OCC(CC)CCCC (centres undefined) :: 20.25 ± 0.81 mPa·s
CC(=O)c1ccc(C)cc1 :: 1.581 ± 0.021 mPa·s

Now let's try a different one.
Recorded viscosity (molecule `OCC1CC1` ): 3.002 ± 0.064 mPa·s

====

Test: xn = mol fraction of the nth substance listed
Conditions: 313.15 K; 101.33 kPa; x2 = 0.3
Recorded viscosity values for a group of molecules are listed next.
All answers are understood in mPa·s, so give the number only.

C[N+](=O)[O-] + CO :: 0.427
C[N+](=O)[O-] + CC(C)O :: 0.507
C[N+](=O)[O-] + CCC(C)O :: 0.546

Now let's try a different one.
Recorded viscosity (molecule C[N+](=O)[O-] + CC(C)(C)O ): 0.549

====

Assay: xn = mol fraction of the nth substance listed
Conditions: 313.15 K; 101.33 kPa; x2 = 0.4501
Parameter Measured: viscosity (mPa·s)
All answers are understood in mPa·s, so give the number only.

Solved cases (3 shown):
C[N+](=O)[O-] + CO :: 0.412
C[N+](=O)[O-] + CC(C)O :: 0.552
C[N+](=O)[O-] + CCO :: 0.491

Now let's try a different one.
Recorded viscosity (molecule C[N+](=O)[O-] + CC(C)(C)O ): 0.633
